Value source: PubChem BioAssay AID1996

settings: buffer; pH 7.4; 200.0 µM
Use 20 µg/mL as the dividing line for solubility kinetic, with the line itself on the YES side and lower values as NO.

Item Cc1ccc(-c2cc(NC(=O)c3ccccc3)on2)cc1 with solubility kinetic of 20 µg/mL or above?
NO

Thanks! And CC(=O)Nc1ccc(S(=O)(=O)NC(C)c2ccccc2)cc1 (configuration not stated) ?
YES

Another compound: CC(C)CCn1c(=O)c(C(=O)NCc2ccco2)c(O)c2ccccc21
NO

Also C=CCNc1cc(C)oc(=O)c1C(=O)CC ?
YES

Can you handle O=C(c1cccs1)N1CCN=C1SCc1cccc(F)c1 next?
NO

Record: N#CC1=C(N)Oc2nc[nH]c(=O)c2C1c1cccs1 (configuration not stated)
YES

Try this compound next: COc1ccccc1NC(=O)N1CCN(c2ccnc3cc(Cl)ccc23)CC1
NO

Field entry: COCCCn1c(=O)c2ccccc2n2c(=S)[nH]nc12
YES

Consider next the compound O=C(O)CNC(=S)N(Cc1ccc(F)cc1)C1CCCCC1 in the same way.
YES

Can you check Cc1ccc(C(=O)Nc2ccc3c(c2)OCCO3)cc1 next?
YES

Also O=[N+]([O-])c1ccc(-c2csc(N3CCCCCC3)n2)cc1 , if possible.
NO

Now the same for CNS(=O)(=O)c1cc(Nc2ncnc3sccc23)ccc1C
NO

Next up: Cc1ccc(C(=O)N2CCC(C(=O)c3c(C)cc(C)cc3C)CC2)cc1
YES

Repeat for the following compound: CC(C)CN(C(=O)C1CC1)C1CCS(=O)(=O)C1 (configuration not stated)
YES

Moving on to the next compound: COc1cc(OC)c(C(=O)OCC(=O)NC2CCCCCCC2)cc1OC
YES

Repeat with O=C(Nc1cccc(NC(=O)c2ccccc2)n1)c1ccccc1
NO

Can you handle O=C(CNC(=O)c1ccccc1F)N/N=C/c1ccco1 next?
YES

Try the compound CN(C)c1ccc(C(=O)OCC(=O)N2CCCCCC2)cc1
YES

And then O=C(Nc1cccc(O)c1)c1cccc(NC(=O)c2cccs2)c1 , what is it?
YES

Also, CCn1ccnc1CN1CCCC(C(=O)c2ccc(OC)cc2OC)C1 (configuration not stated) please.
YES

What do you have for O=S(=O)(Nc1ccncc1Cl)c1cccc(Cl)c1Cl ?
YES

Cc1ccc(OCCNC(=O)CNC(=O)c2ccccc2Cl)cc1 , same question.
YES

Same for O=C(Nc1ccc(NC(=O)c2ccccc2F)cn1)c1ccco1
NO

Next record, please: Cc1cc(C(=O)NCC(=O)Nc2c(C)cccc2C)c(C)o1
YES

Now the compound Cn1cccc1C(=O)OCC(=O)NC(=O)c1ccc(Cl)cc1
NO

And COc1cc(OC)c(C(=O)NCc2ccco2)cc1OC ?
YES
